Target: T1, recombinant human SOST (rhSOST) (human, UniProt Q9BQB4 24-213)
T1 construct: Treated as one molecule; also called recombinant human SOST protein; human sclerostin
T1 sequence: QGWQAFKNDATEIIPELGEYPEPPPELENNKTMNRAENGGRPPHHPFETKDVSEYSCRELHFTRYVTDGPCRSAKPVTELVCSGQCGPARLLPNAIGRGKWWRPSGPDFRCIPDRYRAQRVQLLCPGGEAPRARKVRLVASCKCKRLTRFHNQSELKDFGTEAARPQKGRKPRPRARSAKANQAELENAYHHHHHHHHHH
Experiment: SPR Biacore T200, IgG captured via anti-human Fc, rhSOST analyte, 37 C
Field: Kd. Provide a value for each of the binders that follow.
Give bare numbers, in nM.

DM20 (antibody, V domains shown, also called mH1/wt) VH: EVQLLESGGGLVQPGGSLRLSCAASGHTFSDYWMQWVRQAPGKGLEWIGAIYPGDGDTRYNQKFKDRFTISRDNSKNTLYLQMNSLRAEDTAVYYCARSMDYWGQGTLVTVSS VL: DIVMTQSPDSLAVSLGERATINCRASKTVDSYGNSFMHWFQQKPGQPPKLLIHHSSNLESGVPDRFSGSGSGTDFTLTISSLQAEDVAVYYCLQTIEDPYTFGQGTKLEIK	0.015

For every listed record, write down its Kd.
1. DM3 (antibody, V domains shown, also called mH10/mL15) VH: EVQLLESGGGLVQPGGSLRLSCAASGHTFSDYWMQWVRQAPGKGLEWVGAIYPGDGDTRYNQKFKDRFTISRDNSKNTLYLQMNSLRAEDTAVYYCARSMDYWGQGTLVTVSS VL: DIVMTQSPDSLAVSLGERATINCRASKTVDSYGNSFMHWYQQKPGQPPKLLIYHSSNLESGVPDRFSGSGSGTDFTLTISSLQAEDVAVYYCLQTIEHPYTFGQGTKLEIK
2. DM31 (antibody, V domains shown, also called mH10/mL19) VH: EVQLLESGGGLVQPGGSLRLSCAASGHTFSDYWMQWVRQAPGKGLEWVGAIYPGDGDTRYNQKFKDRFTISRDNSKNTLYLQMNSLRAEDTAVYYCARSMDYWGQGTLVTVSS VL: DIVMTQSPDSLAVSLGERATINCRASKTVDSYGNSFMHWYQQKPGQPPKLLIYHSSNLESGVPDRFSGSGSGTDFTLTISSLQAEDVAVYYCLQTIEDSYTFGQGTKLEIK

1.84
0.816
